# System: HER2-positive SK-BR-3 cells
# Experiment: In vitro cell viability assay (Cell-Titer Glo Luminescence), HER2-positive cells
# Assay type: cell-based
# Measurement context: 96 h incubation, 40-0.018 nM, 2-fold dilutions, viability as % of untreated cells
Recorded metric: IC50 (nM)
Answer format: numeric, nM implied, no suffix.

# get_value(readout='IC50', item= `COc1cc2cc(c1Cl)N(C)C(=O)C[C@H](OC(=O)[C@H](C)N(C)C(=O)CCCCCN)[C@]1(C)O[C@H]1[C@H](C)[C@@H]1C[C@@](O)(NC(=O)O1)[C@H](OC)/C=C/C=C(\C)C2` )
3.4
